target: Human brain derived TDP-43 aggregates (Homo sapiens, UniProt Q13148); construct: A sample of brain tissue (frontal or temporal cortex) was homogenized; from tissue; host or cells: sarkosyl-insoluble fraction of human FTD brain (frontal or temporal cortex); experiment: Micro-radiobinding competition assay on human FTD sarkosyl-insoluble brain extracts; format: binding; settings: 2 μM test compound; radioligand [3H]-Compound 16 (40 nM)
Sequence (Q13148 whole entry): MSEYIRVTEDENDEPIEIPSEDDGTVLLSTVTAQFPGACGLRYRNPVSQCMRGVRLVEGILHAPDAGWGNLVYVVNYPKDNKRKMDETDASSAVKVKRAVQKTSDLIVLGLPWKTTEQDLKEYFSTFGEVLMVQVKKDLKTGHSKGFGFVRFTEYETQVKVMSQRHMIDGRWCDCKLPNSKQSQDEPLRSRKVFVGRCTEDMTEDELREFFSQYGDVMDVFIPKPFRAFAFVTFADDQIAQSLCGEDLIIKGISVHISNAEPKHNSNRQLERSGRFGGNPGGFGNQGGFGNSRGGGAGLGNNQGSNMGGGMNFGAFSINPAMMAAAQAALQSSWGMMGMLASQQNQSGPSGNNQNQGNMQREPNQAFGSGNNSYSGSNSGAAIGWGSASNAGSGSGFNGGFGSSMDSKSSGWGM
Marks after values point to notes of the source that are not given here.
Measured Human brain derived TDP-43 aggregates Mean % competition at 2 μM of individual entries

Solved cases below.
INSERT INTO assay_data (compound_string, obs_value) VALUES
  ('N#Cc1c(N)cccc1N1CCc2nc(-c3cnc(N4CC[C@H](F)C4)cn3)sc2C1=O', '67.7^c %'),
  ('Nc1cc(N2CCc3nc(-c4cnc(N5CCC(F)CC5)nc4)sc3C2=O)ccc1F', '65.5^c %'),
  ('Nc1cccc(N2CCc3nc(-c4cnc(N5CCC[C@@H](F)C5)nc4)sc3C2=O)c1F', '63.4^c %'),
  ('N#Cc1c(N)cccc1N1CCc2nc(-c3cnc(N4CC[C@@H](F)C4)cn3)sc2C1=O', '77.9^c %');

Kindly note the recorded Human brain derived TDP-43 aggregates Mean % competition at 2 μM for `N#Cc1c(N)cccc1N1CCc2nc(-c3cnc(N4CCC(F)CC4)cn3)sc2C1=O` , which is 77.4^c %

----------
target: Human brain derived TDP-43 aggregates (Homo sapiens, UniProt Q13148); construct: A sample of brain tissue (frontal or temporal cortex) was homogenized; from tissue; host or cells: sarkosyl-insoluble fraction of human FTD brain (frontal or temporal cortex); test: Micro-radiobinding competition assay on human FTD sarkosyl-insoluble brain extracts; type: binding; settings: 250 nM test compound; radioligand [3H]-Compound 52 (75 nM)
READOUT_TYPE: Human brain derived TDP-43 aggregates Mean % competition at 250 nM

Solved cases below.
INSERT INTO measurements (compound_string, obs_value) VALUES
  ('Nc1cc(N2CCc3nc(-c4cnc(N5CC[C@H](F)C5)cn4)sc3C2=O)ccc1F', '54.3ª %'),
  ('Nc1cc(N2CCc3nc(-c4ccc(N5CCC[C@H](F)C5)nc4)sc3C2=O)ccc1F', '52.1ª %'),
  ('Nc1ccc(N2CCc3nc(-c4cnc(N5CCCC5)nc4)sc3C2=O)cc1F', '45.0ª %'),
  ('N#Cc1cc(N2CCc3nc(-c4ccc(N5CC[C@H](F)C5)nc4)sc3C2=O)ccc1N', '35.5ª %'),
  ('Nc1cc(N2CCc3nc(-c4cnc(N5CCCC5)nc4)sc3C2=O)ccc1F', '43.8ª %');

Kindly note the recorded Human brain derived TDP-43 aggregates Mean % competition at 250 nM for `Nc1cccc(N2CCc3nc(-c4cnc(N5CC[C@@H](F)C5)cn4)sc3C2=O)c1F` , which is 46.3ª %

Kindly note the recorded Human brain derived TDP-43 aggregates Mean % competition at 250 nM for `N#Cc1ccc(N2CCc3nc(-c4ccc(N5CC[C@@H](F)C5)nc4)sc3C2=O)cc1N` , which is 76.9ª %

Kindly note the recorded Human brain derived TDP-43 aggregates Mean % competition at 250 nM for `Cn1cc(N2CCc3nc(-c4ccc(N5CCC[C@@H](F)C5)nc4)sc3C2=O)cn1` , which is 61.0ª %

----------
Target: Human brain derived TDP-43 aggregates (Homo sapiens, UniProt Q13148)
Construct: A sample of brain tissue (frontal or temporal cortex) was homogenized; from tissue; host or cells: sarkosyl-insoluble fraction of human FTD brain (frontal or temporal cortex)
Assay: Micro-radiobinding competition assay on human FTD sarkosyl-insoluble brain extracts
Type: binding
Details: 2 μM test compound; radioligand [3H]-Compound 52 (75 nM)
Experimental: Human brain extracts were prepared as described in Laferriere et al., 2019, Nature Neurosc. […] Brain homogenates were thawed on ice and resuspended in HS buffer to obtain a final concentration of 2% sarkosyl, 1 unit/μL Benzonase and 1 mM MgCl2. […] The samples were analyzed by immunoblotting in denaturing conditions. Human FTD sarkosyl-insoluble brain extracts were spotted onto microarray slides. […] Quantification of the signal was performed by using the Beamage image analysis software (ai4R). […]
READOUT_TYPE: Human brain derived TDP-43 aggregates Mean % competition at 2 μM

Solved cases below.
INSERT INTO results (compound_string, obs_value) VALUES
  ('Cn1cc(N2CCc3nc(-c4ccc(N5CC[C@@H](F)C5)cc4)sc3C2=O)cn1', '80.2ª %'),
  ('Nc1ccc(N2CCc3nc(-c4ccc(N5CCCC5)nc4)sc3C2=O)cc1F', '96.4ª %');

Kindly note the recorded Human brain derived TDP-43 aggregates Mean % competition at 2 μM for `N#Cc1ccc(N2CCc3nc(-c4ccc(N5CC[C@@H](F)C5)nc4)sc3C2=O)cc1N` , which is 92.1ª %

Kindly note the recorded Human brain derived TDP-43 aggregates Mean % competition at 2 μM for `Nc1cc(N2CCc3nc(-c4ccc(N5CCCC5)nc4)sc3C2=O)ccc1F` , which is 91.2ª %
